studyConditions: in NMP, 318.15 K
readout: solubility (mole fraction)
Could you keep your reply to the number by itself?

// solubility (mole fraction) value for COC1=CC(=O)C[C@@H](C)[C@]12Oc1c(Cl)c(OC)cc(OC)c1C2=O : 0.0541

* * *

studyConditions: in ethanol, 313.15 K
readout: solubility (mole fraction)

Per the records, this compound ( COC1=CC(=O)C[C@@H](C)[C@]12Oc1c(Cl)c(OC)cc(OC)c1C2=O ) has solubility (mole fraction) equal to 0.000779

* * *

studyConditions: in NMP, 303.15 K
readout: solubility (mole fraction)

Field solubility (mole fraction) (entry COC1=CC(=O)C[C@@H](C)[C@]12Oc1c(Cl)c(OC)cc(OC)c1C2=O ) reads 0.045
